method summary: in vivo
settings: male, Sprague-Dawley, rat, serum, iv, 1 mg/Kg
measured quantity: half-life
Entry format: amount then unit.

Problem: Return reported half-life; argument: Oc1ccc2c3c1O[C@H]1[C@@H](O)CC[C@@]4(O)[C@@H](C2)N(CC2CCC2)CC[C@]314
Result: 1.28 h

###

Test system: UGT2B
method summary: in vitro
settings: male, Sprague-Dawley, rat, % Inhibition (Mean ± SD)
Assign class by inhibition at 60 min, 85 μM: not lower than -60% means Satisfied; lower than -60% means Not satisfied.

Check out these entries, answers already filled in.
compound	classification
O=c1c(-c2ccc(O)cc2)coc2cc(O)ccc12	Not satisfied
O=C1C[C@@H](c2ccc(O[C@@H]3O[C@H](CO)[C@@H](O)[C@H](O)[C@H]3O)cc2)Oc2cc(O)ccc21	Satisfied
O=c1c(O)c(-c2ccc(O)cc2)oc2cc(O)cc(O)c12	Not satisfied
O=c1cc(-c2ccccc2)oc2cc(O)c(O)c(O)c12	Not satisfied
COc1ccc(-c2coc3cc(O)ccc3c2=O)cc1	Satisfied
O=c1c(O)c(-c2ccc(O)c(O)c2)oc2cc(O)cc(O)c12	Not satisfied

Next compound, please.
Problem: Does the compound O=C(O)/C=C/c1ccccc1 [trans-cinnamic acid, Trans-Cinnamic Acid] have recorded inhibition at 60 min, 85 μM that is -60% or more?
Result: Not satisfied

###

System: UGT2B
method summary: in vitro
settings: male, Sprague-Dawley, rat, % Inhibition (Mean ± SD)
measured quantity: inhibition at 60 min, 8.5 μM (%)
Numeric only. Scale: %

molecule	inhibition at 60 min, 8.5 μM, %
CC(=O)OCCCc1ccccc1 [3-phenylpropyl acetate, 3-Phenylpropyl Acetate]	-26.3
O=C(O)c1ccc(O)c(O)c1	-20.2

Problem: Return reported inhibition at 60 min, 8.5 μM; argument: CC12CCC(CC1)C(C)(C)O2
Result: -8.41

Problem: COc1ccc([C@@H]2CC(=O)c3c(O)cc(O[C@@H]4O[C@H](CO[C@@H]5O[C@@H](C)[C@H](O)[C@@H](O)[C@H]5O)[C@@H](O)[C@H](O)[C@H]4O)cc3O2)cc1O , same question.
Result: 2.16

Problem: O=c1cc(-c2ccccc2)oc2cc(O)c(O)c(O)c12 , same question.
Result: -99.6

Problem: O=C(O)/C=C/c1ccccc1 [trans-cinnamic acid, Trans-Cinnamic Acid] , same question.
Result: -153

Problem: Oc1cc(O)c2c(c1)OC(c1ccc(O)c(O)c1)[C@@H](O)C2 (single isomer, unassigned; (+)) [(+)-catechin, (+)-Catechin] , same question.
Result: -68.4

Problem: O=c1ccc2ccc(O)cc2o1 , same question.
Result: -14.7

Problem: COc1c(O)cc(O)c2c(=O)cc(-c3ccccc3)oc12 , same question.
Result: -129

Problem: COc1ccc(-c2coc3cc(O)ccc3c2=O)cc1 , same question.
Result: -86.5

Problem: O=c1cc(-c2ccc(O)c(O)c2)oc2cc(O)cc(O)c12 , same question.
Result: -25.5

Problem: CCCCCCCCCCCCCC(=O)OCC [ethyl myristate, Ethyl Myristate] , same question.
Result: -27.8

Problem: O=C1CC(c2ccc(O)c(O)c2)Oc2cc(O)cc(O)c21 (stereo not shown) , same question.
Result: -1.06

Problem: O=C1C[C@@H](c2ccc(O[C@@H]3O[C@H](CO)[C@@H](O)[C@H](O)[C@H]3O)cc2)Oc2cc(O)ccc21 , same question.
Result: -9.38

Problem: O=C/C=C/c1ccccc1 [trans-cinnamaldehyde, Trans- Cinnamaldehyde] , same question.
Result: -6.97

Problem: O=c1c(O)c(-c2ccc(O)cc2)oc2cc(O)cc(O)c12 , same question.
Result: -19.5

###

System: UGT2B
method summary: Measurement of the inhibition of UGT2B activity in vitro (metabolism of nalbuphine in liver microsome, HPLC)
settings: Table 6, enhancer 850 μM; negative = enhancement
# % Inhibition (Mean ± SD) values compiled below

# annotated cases, reported % Inhibition (Mean ± SD) shown
molecule	experimental value
O=c1cc(-c2ccc(O)cc2)oc2cc(O)c([C@@H]3O[C@H](CO)[C@@H](O)[C@H](O)[C@H]3O)c(O)c12	−12.377 ± 8.912%
O=c1cc(-c2ccc(O)c(O)c2)oc2cc(O[C@@H]3O[C@H](CO)[C@@H](O)[C@H](O)[C@H]3O)cc(O)c12 [luteolin-7-glucoside, Luteolin-7-Glucoside]	−47.869 ± 26.599%
O=c1c(O[C@@H]2O[C@H](CO)[C@@H](O)[C@H](O)[C@H]2O)c(-c2ccc(O)c(O)c2)oc2cc(O)cc(O)c12	−71.696 ± 20.468%
C[C@@H]1O[C@@H](Oc2c(-c3ccc(O)c(O)c3)oc3cc(O)cc(O)c3c2=O)[C@H](O)[C@H](O)[C@H]1O	−55.57 ± 12.151%

Consider now this further molecule.
Problem: # returns recorded % Inhibition (Mean ± SD) (system: UGT2B) for COc1ccc([C@@H]2CC(=O)c3c(O)cc(O[C@@H]4O[C@H](CO)[C@@H](O)[C@H](O)[C@H]4O[C@@H]4O[C@@H](C)[C@H](O)[C@@H](O)[C@H]4O)cc3O2)cc1
Result: −7.098 ± 18.196%

###

Tested on: UGT2B
method summary: in vitro
settings: male, Sprague-Dawley, rat, % Inhibition (Mean ± SD)
Assign class by inhibition at 60 min, 8.5 μM: not lower than -80% means yes (1); lower than -80% means no (0).

Check out these entries, answers already filled in.
molecule	classification
COc1cc(O)c2c(=O)cc(-c3ccc(O)cc3)oc2c1 [genkwanin]	yes (1)
COc1ccc(C2CC(=O)c3c(O)cc(O)cc3O2)cc1O (stereo not shown) [hesperetin, Hesperetin]	yes (1)
C[C@H](Cc1ccc(O)c(O)c1)[C@@H](C)Cc1ccc(O)c(O)c1 [nordihydroguaiaretic acid]	no (0)
CC1(C)[C@@H](O[C@H]2O[C@H](C(=O)O)[C@@H](O)[C@H](O)[C@H]2O[C@@H]2O[C@H](C(=O)O)[C@@H](O)[C@H](O)[C@H]2O)CC[C@]2(C)[C@H]3C(=O)C=C4[C@@H]5C[C@@](C)(C(=O)O)CC[C@]5(C)CC[C@@]4(C)[C@]3(C)CC[C@@H]12 [glycyrrhizin, Glycyrrhizin]	yes (1)
O=c1cc(-c2ccc(O)cc2)oc2cc(O)cc(O)c12 [apigenin, Apigenin]	yes (1)

Next molecule, please.
Problem: Does the molecule O=c1c(-c2ccc(O)cc2)coc2cc(O)ccc12 [daidzein, Daidzein] have recorded inhibition at 60 min, 8.5 μM that is -80% or more?
Result: no (0)

###

System: UGT2B
method summary: Measurement of the inhibition of UGT2B activity in vitro (metabolism of nalbuphine in liver microsome, HPLC)
settings: male, Sprague-Dawley, rat
measured quantity: inhibition at 60 min, 85 µM (%)
Numeric only. Scale: %

Problem: Return reported inhibition at 60 min, 85 µM; argument: COc1cc(-c2oc3cc(O)cc(O)c3c(=O)c2O)ccc1O
Result: 85.1

Problem: O=c1c(-c2ccc(O)cc2)coc2cc(O)cc(O)c12 , same question.
Result: 5.73

###

System: UGT2B
method summary: Measurement of the inhibition of UGT2B activity in vitro (metabolism of nalbuphine in liver microsome, HPLC)
settings: male, Sprague-Dawley, rat
measured quantity: inhibition at 60 min, 8.5 μM
Entry format: amount then unit.

compound	subject of test	measured quantity	experimental value
O=c1c(-c2ccc(O)cc2)coc2cc(O[C@@H]3O[C@H](CO)[C@@H](O)[C@H](O)[C@H]3O)ccc12 [daidzin, Daidzin]	UGT2B	inhibition at 60 min, 8.5 μM	-29.5%

Consider now this further compound.
Problem: Return reported inhibition at 60 min, 8.5 μM; argument: O=c1c(-c2ccc(O)cc2)coc2cc(O)cc(O)c12 [genistein, Genistein]
Result: 15.6%

###

Tested on: UGT2B
method summary: Measurement of the inhibition of UGT2B activity in vitro (metabolism of nalbuphine in liver microsome, HPLC)
settings: Table 6, enhancer 850 μM; negative = enhancement
measured quantity: % Inhibition (Mean ± SD) (%)
Numeric only. Scale: %

# annotated cases, reported % Inhibition (Mean ± SD) shown
compound	result units	% Inhibition (Mean ± SD)
O=c1cc(-c2ccc(O)c(O)c2)oc2cc(O)c([C@@H]3O[C@H](CO)[C@@H](O)[C@H](O)[C@H]3O)c(O)c12 [homoorientin, Homoorientin]	%	−133.17
COc1ccc([C@@H]2CC(=O)c3c(O)cc(O[C@@H]4O[C@H](CO)[C@@H](O)[C@H](O)[C@H]4O[C@@H]4O[C@@H](C)[C@H](O)[C@@H](O)[C@H]4O)cc3O2)cc1O [neohesperidin, Neohesperidin]	%	−113.46
C[C@@H]1O[C@@H](OC[C@H]2O[C@@H](Oc3c(-c4ccc(O)c(O)c4)oc4cc(O)cc(O)c4c3=O)[C@H](O)[C@@H](O)[C@@H]2O)[C@H](O)[C@H](O)[C@H]1O [rutin, Rutin]	%	−33.458

Consider now this further compound.
Problem: # returns recorded % Inhibition (Mean ± SD) (system: UGT2B) for C[C@@H]1O[C@@H](O[C@H]2[C@H](Oc3cc(O)c4c(c3)O[C@H](c3ccc(O)cc3)CC4=O)O[C@H](CO)[C@@H](O)[C@@H]2O)[C@H](O)[C@H](O)[C@H]1O [narigin, Narigin]
Result: −98.15
